system: healthy human fibroblasts; assay: Reduction in C26:0 LPC in healthy human fibroblasts in vitro; assay type: cell-based; conditions: Healthy 2 Fibroblast; half maximal reduction in C26:0 LPC; each number a separate measurement
pIC50: −log10 of the molar value.
property-measured: pIC50

structure_smiles_string=O=C(Nc1ccn(-c2ccnc(F)c2)n1)C1(c2ccccc2F)CC1 property_measured=pIC50 recorded_value=8.22

###

experiment: Metabolic intrinsic clearance in monkey hepatocytes; assay type: in vitro ADME, cynomolgus monkey; settings: cryopreserved hepatocytes in suspension, pH 7.5, 0.5 million cells/mL, incubation for 4 hours
property-measured: hepatocyte CLint at 1 μM

structure_smiles_string=O=C(Nc1ccn(-c2ccnc(F)c2)n1)C1(c2ccccc2F)CC1 property_measured="hepatocyte CLint at 1 μM" recorded_value="≤ 2.5 µL/min/1e6 cells"

###

test: Blood exposure (AUC) in the 28-day oral dosing study in mice; type: in vivo; details: ABCD1 knockout (KO), mouse, whole blood (dried blood spots); 4 mg/kg PO QD; read-out: Blood area under the concentration time-curve (AUC)
property-measured: AUC (ng·h/mL)

structure_smiles_string=O=C(Nc1ccn(-c2ccnc(F)c2)n1)C1(c2ccccc2F)CC1 recorded_value=1950

###

test: Metabolic intrinsic clearance in mouse hepatocytes; format: in vitro ADME, CD-1 mouse; conditions: CD-1, cryopreserved hepatocytes in suspension, pH 7.5, 0.5 million cells/mL, incubation for 4 hours
property-measured: hepatocyte CLint at 1 μM (µL/min/1e6 cells)

structure_smiles_string=O=C(Nc1ccn(-c2ccnc(F)c2)n1)C1(c2ccccc2F)CC1 recorded_value=10.7

###

system: HEK293 cells; assay: HEK293 VLCFA-LPC IC50 determination (13C-labeled C26:0 LPC by UHPLC/MS); assay type: cell-based, human; conditions: Homo sapiens, HEK293, 48 h, average of one or more replicates; 13C-labeled C26:0 LPC, 48 hours; read-out: Average HEK293 IC50
pIC50: −log10 of the molar value.
The compounds listed here are annotated with their pIC50.
property-measured: pIC50

compound="COc1ncc(-n2ccc(NC(=O)C3(c4ccccc4F)CC3)n2)cc1F [Compound 348]" relation== recorded_value=7.48
compound="O=C(Nc1ccn(-c2cnc(C(F)(F)F)nc2)n1)C1(c2ccccc2F)CC1 [Compound 381]" relation=< recorded_value=5.30
compound="Cc1ccccc1C1(C(=O)Nc2ccn(-c3ccncc3)n2)CC1 [Compound 373]" relation== recorded_value=6.85
compound="CC(C)Oc1cc(-n2ccc(NC(=O)C3(c4ccccc4F)CC3)n2)ccn1 [Compound 342]" relation=< recorded_value=5.30
compound="O=C(Nc1ccn(-c2ccc(O)c(F)c2)n1)C1(c2ccccc2F)CC1 [Compound 355]" relation== recorded_value=5.77
compound="O=C(Nc1ccn(-c2cncc(F)c2)n1)[C@@]1(c2ncccc2F)CC12CC2 (single isomer, unassigned) [Compound 500]" relation== recorded_value=6.37
compound="Cc1nn(C)cc1-n1ccc(NC(=O)C2(c3ccccc3F)CC2)n1 [Compound 403]" relation=< recorded_value=5.30
compound="CC(C)(C)c1ncc(-n2ccc(NC(=O)C3(c4ccccc4F)CC3)n2)cn1 [Compound 383]" relation=< recorded_value=5.30

###

system: HEK293 cells; assay: HEK293 VLCFA-LPC IC50 determination (13C-labeled C26:0 LPC by UHPLC/MS); type: cell-based, human; settings: average of one or more replicates; 13C-labeled C26:0 LPC, 48 hours; read-out: Average HEK293 IC50
pIC50: −log10 of the molar value.
property-measured: pIC50

compound="O=C(Nc1ccn(-c2ccnc(F)c2)n1)C1(c2ccccc2)CC1(F)F (single isomer, unassigned) [Compound 369]" recorded_value=7.44
compound="O=C(Nc1ccn(-c2ccccc2)n1)C1(c2ccccc2)CC1(F)F (single isomer, unassigned) [Compound 367]" recorded_value=6.96
compound="O=C(Nc1ccn(-c2cccc(Cl)c2)n1)C1(c2ccccc2)CC1(F)F (single isomer, unassigned) [Compound 437]" recorded_value=5.62
compound="O=C(Nc1ccn(-c2ccncc2)n1)C1(c2ccccc2)CC1(F)F (single isomer, unassigned) [Compound 434]" recorded_value=6.47
